Data origin, for the record: PubChem BioAssay AID588480

# Assay target: Serine/threonine-protein kinase 33 (Homo sapiens) (UniProt Q9BYT3)
# Sequence (Q9BYT3 whole entry, looked up): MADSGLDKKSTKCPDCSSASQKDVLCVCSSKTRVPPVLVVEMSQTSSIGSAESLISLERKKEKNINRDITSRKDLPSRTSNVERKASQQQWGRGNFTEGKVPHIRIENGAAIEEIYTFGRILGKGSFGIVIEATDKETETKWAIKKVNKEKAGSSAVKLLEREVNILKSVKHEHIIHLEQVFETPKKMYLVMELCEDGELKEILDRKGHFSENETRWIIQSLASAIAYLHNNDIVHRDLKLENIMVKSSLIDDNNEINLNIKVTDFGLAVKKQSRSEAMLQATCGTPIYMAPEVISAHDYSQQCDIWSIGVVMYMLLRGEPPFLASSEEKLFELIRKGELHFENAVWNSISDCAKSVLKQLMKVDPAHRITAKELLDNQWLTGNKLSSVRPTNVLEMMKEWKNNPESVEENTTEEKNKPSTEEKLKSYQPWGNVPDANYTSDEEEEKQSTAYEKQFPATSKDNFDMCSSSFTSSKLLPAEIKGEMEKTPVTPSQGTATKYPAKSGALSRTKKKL
# Measurement description: STK33 kinase inhibitors, potency, dose response, biochemical, ADP-Glo luminescence, dry powder, set 2 (AID 588480)
# Protocol conditions: purified STK33, MBP phosphorylation
Inconclusive results are not listed.
The following compounds are listed with their measured AC50 values.

For record `COc1cc(/C=C2\SC(=Nc3ccccc3OC)NC2=O)ccc1F` the listed AC50 is 9910 nM

# compound `COc1ccc(/C=C2\SC(=Nc3ccccc3OC)NC2=O)cc1` ; its AC50 = 2250 nM

AC50 measured on `COc1ccccc1N=C1NC(=O)/C(=C/c2ccc3c(c2)OCCO3)S1` = 1280 nM

Could you now consider this next compound?
Lookup result for `O=C(Nc1ccccc1-c1nc2ccccc2[nH]c1=O)c1ccncc1` ; measured AC50: 7690 nM
